target: D(2) dopamine receptor (Rattus norvegicus); experiment: Compound was evaluated for affinity towards dopamine D2-like receptor in homogenate of caudate putamen tissue from rat brain
# pKi listing for each entry below
Just the number, please; pKi means minus log10 of the concentration in mol/L.

{"compound": "CN1CCc2cc(Cl)c(O)cc2C(c2cccc(Br)c2)C1 (stereo not drawn)", "target-of-assay": "D(2) dopamine receptor (Rattus norvegicus)", "measured": 5.95}

Now consider a different compound.
Form: compound = CN1CCc2cc(Cl)c(O)cc2C(c2ccccc2C(=O)C2=CC=C[C@@H]2[Re]([CH]=O)([CH]=O)[CH]=O)C1 (stereo partly drawn) ; pKi = 6.26
